Assay: Cell Viability - HUV-EC-C (AID 542);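 note: cells exposed to compound for 40 hours; nearly all actives have a fitted effect of over 35% in size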
Conditions: HUV-EC-C endothelial cell viability, qHTS; series mostly up to 92.2 µM
Inconclusive results are not listed. Active and inactive are the calls of the source. Calls come from the whole dose curve; as a rule, active = well fitted cell-killing curve with a large enough effect; inconclusive = small, poorly fitted or top-dose-only effect, or effect the other way; inactive = flat fitted curve, though single readings scatter. Numbered stars: 1 amine (or outer) side, 2 acyl side, 3 side chain; on linkers, the order of the positions; unused ones are H or OH. Bridge positions count the residues as written; N and C are the ends. Square brackets hold non-standard residues; d marks the D form. Peptide text beside a SMILES is read from it. I, II: the chains in the order shown. Actinocin(9to1) = Cc1c2oc3c(C)ccc(C(=O)[*:1])c3nc-2c(C(=O)[*:2])c(N)c1=O; NMeV = CN[C@H](C(=O)O)C(C)C; Sar = CNCC(=O)O
Outcome codes: yes (1) = active, no (0) = inactive

COMPOUND	LABEL
Oc1c(Cl)cc(Cl)cc1Sc1cc(Cl)cc(Cl)c1O	yes (1)
Cc1c2oc3c(C)ccc(C(=O)N[C@@H]4C(=O)N[C@H](C(C)C)C(=O)N5CCC[C@H]5C(=O)N(C)CC(=O)N(C)[C@@H](C(C)C)C(=O)O[C@@H]4C)c3nc-2c(C(=O)N[C@@H]2C(=O)N[C@H](C(C)C)C(=O)N3CCC[C@H]3C(=O)N(C)CC(=O)N(C)[C@@H](C(C)C)C(=O)O[C@@H]2C)c(N)c1=O (I: T[dV]P[Sar][NMeV] / II: T[dV]P[Sar][NMeV]; ester I:1-I:C, II:1-II:C; linker I:N-II:N via Actinocin(9to1))	no (0)
Nc1ccc(C(=O)O)cc1	no (0)
Oc1ccc(Cl)cc1Sc1cc(Cl)ccc1O	yes (1)
COC1=CC(=O)C[C@@H](C)[C@]12Oc1c(Cl)c(OC)cc(OC)c1C2=O	no (0)
CC(=O)O[C@]1(C(C)=O)CC[C@H]2[C@@H]3C[C@H](C)C4=CC(=O)CC[C@]4(C)[C@H]3CC[C@@]21C	no (0)
CC(O)C(=O)O (configuration not stated)	no (0)

Origin of values: PubChem BioAssay (NCATS)
